Recorded values, source PubChem BioAssay (NCATS).

target: Luciferin 4-monooxygenase (Photinus pyralis) (UniProt P08659); assay: Primary firefly luciferase (FLuc) qHTS assay for identification of artifact compounds. (AID 1845220); settings: purified firefly luciferase, luminescence, 5 min; series mostly up to 54.1 µM; also: nearly all actives have a fitted effect of over 60% in size
Activity calls are given as the source filed them. Calls follow the shape of the dose curve; as a rule, active = well fitted inhibition curve with a large enough effect; inconclusive = small, poorly fitted or top-dose-only effect; inactive = flat fitted curve, though single readings scatter.
PROPERTY_MEASURED: outcome

1) C=CC(C)(CC/C=C(\C)C(=O)OC[C@H]1O[C@@H](OC(C)(C=C)CC/C=C(\C)C(=O)O[C@H]2[C@H](O)[C@@H](O)[C@H](OC(C)(C=C)CC/C=C(\C)C(=O)O)O[C@@H]2CO)[C@H](O)[C@@H](O)[C@@H]1O)O[C@@H]1O[C@H](CO)[C@@H](O)[C@H](O)[C@H]1O (some centres not stated); inactive [at 11.6 µM]
2) C=C(C)C1CCC2(C(=O)OC3OC(COC4OC(CO)C(O)C(O)C4O)C(OC4OC(C)C(O)C(O)C4O)C(O)C3O)CCC3(C(=O)O)C(CCC4C5(C)CCC(=O)C(C)(C)C5CCC43C)C12 (configuration not stated); inactive [at 11.6 µM]

* * *

test system: PA-1; assay: Primary qHTS to identify gynecologic anti-cancer compounds using libraries of approved drugs and bioactive compounds (AID 1345084); conditions: Gynecologic cancer cell panel viability, ATPlite luminescence, 48 h; series mostly up to 57.5 µM; also: nearly all actives have a fitted effect of over 55% in size
Records with an inconclusive call do not appear. Calls of active or inactive are those of the source. The call rests on the fitted dose curve; in most records, active means well fitted cell-killing curve with a large enough effect; inconclusive means small, poorly fitted or top-dose-only effect, or effect the other way; inactive means flat fitted curve, though single readings scatter.
PROPERTY_MEASURED: activity change, negative = cytotoxicity

Field: example entries. Status: answers known.
1) C/C(=C\CC[C@H](CO)[C@@H]1CC[C@]2(C)C3=C(CC[C@@]12C)[C@@]1(C)CCC(=O)C(C)(C)C1CC3)C(=O)O (stereo partly specified); inactive
2) CCCSc1nc(NC2CC2c2ccc(F)c(F)c2)c2nnn(C3CC(OCCO)C(O)C3O)c2n1 (stereo unspecified); inactive
3) CCc1cccc2c3c([nH]c12)[C@@](CC)(CC(=O)O)OCC3; inactive
4) COCc1c(O)c(C(=O)O)c(C)c2c1OC(=O)c1c(C)cc(O)c(CO)c1O2; inactive
5) CC(C)C1CCC(CO)=CC1/C=C(\CO)C(=O)OCC1(O)CCC(C(C)C)C2C=C(C(=O)O)COC(=O)C21 (stereo unspecified); inactive
6) C=C1C2CCC3CC2(CC(O)C2(O)C1CC(OC1OC(CO)C(O)C(O)C1O)C2(C)C)CC3(C)O (stereo unspecified); inactive
7) NCCCCN(Cc1nc2ccccc2[nH]1)[C@H]1CCCc2cccnc21; inactive
8) C/C=C1\[C@H](O[C@@H]2O[C@H](CO)[C@@H](O)[C@H](O)[C@H]2O)OC=C(C(=O)O)[C@H]1CC(=O)OCCc1ccc(O)cc1; inactive

Please look at the items below and tell me activity change, negative = cytotoxicity for each one, in order.
1. C=C1CCC2[C@](C)(CO)CCC[C@@]2(C)[C@@H]1CCC1=CCOC1=O (stereo partly specified)
2. CCc1nnc(NS(=O)(=O)c2ccc(NC(=S)NC(=O)/C=C/c3ccc(F)cc3)cc2)s1
3. CC(C)=CCc1cc(O[C@@H]2O[C@H](CO[C@@H]3OC[C@](O)(CO)[C@H]3O)[C@@H](O)[C@H](O)[C@H]2O)ccc1O
4. C[C@]1(C2CCCC2)Cc2cc(OCC(=O)O)c(Cl)c(Cl)c2C1=O
5. COC(=O)C1=CO[C@@H](O[C@@H]2O[C@H](CO)[C@@H](O)[C@H](O)[C@H]2O)[C@@H]2[C@@H](CO)[C@@H](O)C(O)[C@H]12 (stereo partly specified)
6. O=C(O)Cc1cn([C@@H]2OC[C@@H](O[C@@H]3O[C@H](CO)[C@@H](O)[C@H](O)[C@H]3O)[C@H](O)[C@H]2O[C@@H]2O[C@H](CO)[C@@H](O)[C@H](O)[C@H]2O)c2ccccc12
7. C/C=C(\C)C(=O)OCC1OC(OC2OC(CO)C(O)C(O)C2O)C(O)C(O)C1O (stereo unspecified)
8. COC(=O)[C@]1(C)CCC[C@@]2(C)C(=O)CC[C@H]3C(=O)C=C(CC[C@@H]21)C3O (stereo partly specified)

Response:
["inactive", "inactive", "inactive", "inactive", "inactive", "inactive", "inactive", "inactive"]
